# system-tested: HO-1 (rat spleen) (Rattus norvegicus)
# Construct: Spleen microsomes were used as a source of HO-1; from tissue; host or cells: spleen microsomal fraction of adult male Sprague-Dawley rats
# Sequence (P06762 1-289): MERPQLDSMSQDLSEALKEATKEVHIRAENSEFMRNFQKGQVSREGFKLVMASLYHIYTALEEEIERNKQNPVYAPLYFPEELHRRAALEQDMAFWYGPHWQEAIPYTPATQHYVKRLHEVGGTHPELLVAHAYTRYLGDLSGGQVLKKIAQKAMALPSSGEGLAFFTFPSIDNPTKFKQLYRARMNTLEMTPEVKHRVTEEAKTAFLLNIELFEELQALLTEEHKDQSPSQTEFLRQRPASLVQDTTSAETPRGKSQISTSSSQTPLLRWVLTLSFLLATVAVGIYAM
# test-summary: HO enzymatic activity, rat spleen microsomal fraction (CO formation from methemalbumin)
# Format: biochemical
# measurement-conditions: average ± SD of replicate experiments, read-out: IC50 HO-1 (rat spleen/μM)
Counter-ions that a name gives are not always drawn.

compound	IC50
O=C(CCc1ccccc1)Cn1cnc([N+](=O)[O-])n1 [QC-152]	> 100 µM
COc1ccc(C(=O)Cn2ccnc2)cc1 [QC-163, hydrochloride]	32 µM
c1ccc2[nH]c(NCCCCCN3CCCCC3)nc2c1 [QC-144]	> 100 µM
CCOC(=O)Cc1nnn(CC(=O)CCc2ccccc2)n1 [QC-178]	> 100 µM
Nc1nc2cc(OCCCCN3CCCCC3)ccc2[nH]1 [QC-146, hydrate]	> 100 µM
c1ccc2[nH]c(NC3CCC(c4cnc[nH]4)CC3)nc2c1 (stereo not drawn) [QC-149, dihydrochloride]	> 200 µM
O=C(Cn1ccnc1)c1ccc2ccccc2c1 [QC-162, hydrochloride]	1.9 µM
CS(=O)(=O)c1ncn(CC(=O)CCc2ccccc2)n1 [QC-155]	> 100 µM
O=C(CCc1ccc(O)cc1)Cn1ccnc1 [QC-206, hydrochloride]	382 µM
CS(=O)(=O)c1ncnn1CC(=O)CCc1ccccc1 [QC-156]	> 100 µM
CCN1CCN(c2nc3ccccc3[nH]2)CC1 [QC-148, dihydrochloride hemihydrate]	> 100 µM
NC[C@@H]1CO[C@@](CCc2ccccc2)(Cn2ccnc2)O1 [QC-190, dihydrochloride]	21 µM
